Data credit: patent US11098061B2

TARGET_UNDER_TEST: MK2 (Homo sapiens (Human), UniProt P49137)
Sequence (P49137 whole entry): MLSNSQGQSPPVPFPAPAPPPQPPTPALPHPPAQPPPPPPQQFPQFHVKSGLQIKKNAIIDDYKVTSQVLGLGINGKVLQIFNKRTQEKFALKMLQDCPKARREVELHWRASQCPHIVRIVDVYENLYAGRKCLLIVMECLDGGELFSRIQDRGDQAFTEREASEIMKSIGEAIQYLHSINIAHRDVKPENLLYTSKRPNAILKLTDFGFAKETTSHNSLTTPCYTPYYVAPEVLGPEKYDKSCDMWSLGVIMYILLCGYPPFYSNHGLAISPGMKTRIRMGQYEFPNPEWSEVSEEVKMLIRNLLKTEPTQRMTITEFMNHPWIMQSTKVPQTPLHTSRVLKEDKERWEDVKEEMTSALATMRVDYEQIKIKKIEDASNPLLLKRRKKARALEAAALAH
ASSAY_DETAILS: MK2 cellular assay (Hsp27 phosphorylation in Thp-1 cells)
RUN_PARAMETERS: differentiated Thp-1 cells, compound 1 hour, 50 ng/ml LPS 15 minutes, phosphorylation of Hsp27; read-out: MK2EC50
pEC50: −log10 of the molar value.
We begin with a simple list: items and their reported pEC50.

Answered cases to consult:
{"MOLECULE": "C=CC(=O)N1CC(C)Oc2ccc(-c3cc4c(ccc5c6c([nH]c54)CCC6=O)cn3)cc21 (stereo not shown)", "TEST_RESULT": "6.00 to 6.30"}
{"MOLECULE": "C=CC(=O)Nc1cc(C(=O)Nc2cc(-c3cc4c([nH]3)C3(CCCNC3)CNC4=O)ccn2)ccc1OC(F)(F)F (racemic)", "TEST_RESULT": "6.00 to 6.30"}
{"MOLECULE": "C=CC(=O)N1CC(C)Oc2ccc(NC(=O)c3ccc4cc5n(c4c3)C3(CCC3)CNC5=O)cc21 (racemic)", "TEST_RESULT": "6.30 to 7.00"}

# lookup: pEC50 of C=CC(=O)Nc1cc(-c2cc3c(cn2)CCc2c-3[nH]c3c2C(=O)NCC3)ccc1OCCCN 6.00 to 6.30
